# method: Inhibition of ABCB1 in human MCF7/ADR cells assessed as potentiation of vinblastine-induced cytotoxicity by measuring vinblastine IC50 at IC10 after 7 days by SRB assay
pIC50: −log10 of the molar value.
Tick yes if pIC50 is 8 or greater. Tick no if pIC50 is less than 8.

[[record]]
compound_string = "CCN(CC)CCCCn1c2ccccc2c(=O)c2cc(C)cc(C)c21"
label = "yes"

[[record]]
compound_string = "Cc1cc(C)c2c(c1)c(=O)c1ccccc1n2CCCCN(CCO)CCO"
label = "yes"

[[record]]
compound_string = "Cc1cc(C)c2c(c1)c(=O)c1ccccc1n2CCCN1CCOCC1"
label = "no"

[[record]]
compound_string = "Cc1cc(C)c2c(c1)c(=O)c1ccccc1n2CCCCN1CCN(CCO)CC1"
label = "yes"

[[record]]
compound_string = "Cc1cc(C)c2c(c1)c(=O)c1ccccc1n2CCCCN1CCOCC1"
label = "yes"

[[record]]
compound_string = "Cc1cc(C)c2[nH]c3ccccc3c(=O)c2c1"
label = "no"

[[record]]
compound_string = "Cc1cc(C)c2c(c1)c(=O)c1ccccc1n2CCCCN1CCCCC1"
label = "yes"


---

IC50: recorded values
# method: Inhibition of ABCB1 in human MCF7/ADR cells assessed as potentiation of vinblastine-induced cytotoxicity by measuring vinblastine IC50 at IC10 after 7 days by SRB assay
reported_endpoint: IC50

[[record]]
compound_string = "Cc1cc(C)c2c(c1)c(=O)c1ccccc1n2CCCCN1CCN(C)CC1"
reported_endpoint = "IC50"
value_observed = "10 nM"

[[record]]
compound_string = "CCN(CC)CCCn1c2ccccc2c(=O)c2cc(C)cc(C)c21"
reported_endpoint = "IC50"
value_observed = "14 nM"

[[record]]
compound_string = "Cc1cc(C)c2c(c1)c(=O)c1ccccc1n2CCCN1CCN(C)CC1"
reported_endpoint = "IC50"
value_observed = "17 nM"

[[record]]
compound_string = "Cc1cc(C)c2c(c1)c(=O)c1ccccc1n2CCCN1CCCCC1"
reported_endpoint = "IC50"
value_observed = "17 nM"

[[record]]
compound_string = "Cc1cc(C)c2c(c1)c(=O)c1ccccc1n2CCCN(CCO)CCO"
reported_endpoint = "IC50"
value_observed = "11 nM"

[[record]]
compound_string = "Cc1cc(C)c2c(c1)c(=O)c1ccccc1n2CCCN1CCN(CCO)CC1"
reported_endpoint = "IC50"
value_observed = "8 nM"

